Target: 5HT2C receptors (Homo sapiens, UniProt P28335)
Sequence (P28335 33-458): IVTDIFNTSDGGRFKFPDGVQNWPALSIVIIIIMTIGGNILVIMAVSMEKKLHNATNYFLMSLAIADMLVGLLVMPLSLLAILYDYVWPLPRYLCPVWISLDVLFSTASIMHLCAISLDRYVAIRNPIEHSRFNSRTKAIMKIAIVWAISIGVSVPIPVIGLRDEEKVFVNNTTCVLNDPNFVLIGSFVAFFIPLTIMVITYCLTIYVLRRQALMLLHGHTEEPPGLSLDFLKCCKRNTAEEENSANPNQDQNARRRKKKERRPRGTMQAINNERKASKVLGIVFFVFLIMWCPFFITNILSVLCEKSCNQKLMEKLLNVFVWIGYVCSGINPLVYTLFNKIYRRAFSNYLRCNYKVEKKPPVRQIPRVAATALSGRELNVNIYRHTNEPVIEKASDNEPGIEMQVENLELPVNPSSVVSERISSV
Assay: Human 5-HT2C functional assay in CHO-K1 cells (calcium flux, FLIPR)
Assay type: cell-based
Set-up: expressed in transfected cells; host or cells: CHO-K1 cells
Settings: CHO-K1 cells; percentage relative to the effect of serotonin; read-out: Emax (%), 5-HT2c Agonist Activity
Listed here: items and their measured Emax.

Previously resolved entries follow.
[[record]]
molecule = "O=C1C[C@H]2CNCCN2c2cc(OCCc3cccc(Cl)c3)ccc2N1"
system_tested = "5HT2C receptors (Homo sapiens, UniProt P28335)"
data_value = "> 120%"

[[record]]
molecule = "O=C1CC2CNCCN2c2cc(-c3ccccc3-c3ccccc3)ccc2N1 (stereo not drawn)"
system_tested = "5HT2C receptors (Homo sapiens, UniProt P28335)"
data_value = "110%"

[[record]]
molecule = "C1=C(c2ccc3c(c2)N2CCNC[C@@H]2CCO3)CCCC1"
system_tested = "5HT2C receptors (Homo sapiens, UniProt P28335)"
data_value = "> 120%"

[[record]]
molecule = "O=C1CC2CNCCN2c2cc(-c3cccc(-n4cccn4)c3)ccc2N1 (stereo not drawn)"
system_tested = "5HT2C receptors (Homo sapiens, UniProt P28335)"
data_value = "110%"

[[record]]
molecule = "CCC(C)Oc1ccc2c(c1)N1CCNC[C@@H]1CC(=O)N2 (stereo partly drawn)"
system_tested = "5HT2C receptors (Homo sapiens, UniProt P28335)"
data_value = "> 120%"

[[record]]
molecule = "CC(=O)c1ccccc1-c1ccc2c(c1)N1CCNC[C@@H]1CCO2"
system_tested = "5HT2C receptors (Homo sapiens, UniProt P28335)"
data_value = "> 120%"

[[record]]
molecule = "CC(C)COc1cccc(-c2ccc3c(c2)N2CCNCC2CC(=O)N3)c1 (stereo not drawn)"
system_tested = "5HT2C receptors (Homo sapiens, UniProt P28335)"
data_value = "> 120%"

[[record]]
molecule = "CCOc1ccc2c(c1)N1CCNC[C@@H]1CC(=O)N2"
system_tested = "5HT2C receptors (Homo sapiens, UniProt P28335)"
data_value = "> 120%"


# ---- query molecule ----
Problem: I am curious: what Emax value has been reported for C[C@@H](Oc1ccc2c(c1)N1CCNCC1CC(=O)N2)c1ccccc1F (stereo partly drawn) ?
Solution: 120%

* * *

Molecular target: 5HT2B receptors (Homo sapiens, UniProt P41595)
Construct: expressed in transfected cells; host or cells: CHO-K1 cells
Sequence (P41595 whole entry): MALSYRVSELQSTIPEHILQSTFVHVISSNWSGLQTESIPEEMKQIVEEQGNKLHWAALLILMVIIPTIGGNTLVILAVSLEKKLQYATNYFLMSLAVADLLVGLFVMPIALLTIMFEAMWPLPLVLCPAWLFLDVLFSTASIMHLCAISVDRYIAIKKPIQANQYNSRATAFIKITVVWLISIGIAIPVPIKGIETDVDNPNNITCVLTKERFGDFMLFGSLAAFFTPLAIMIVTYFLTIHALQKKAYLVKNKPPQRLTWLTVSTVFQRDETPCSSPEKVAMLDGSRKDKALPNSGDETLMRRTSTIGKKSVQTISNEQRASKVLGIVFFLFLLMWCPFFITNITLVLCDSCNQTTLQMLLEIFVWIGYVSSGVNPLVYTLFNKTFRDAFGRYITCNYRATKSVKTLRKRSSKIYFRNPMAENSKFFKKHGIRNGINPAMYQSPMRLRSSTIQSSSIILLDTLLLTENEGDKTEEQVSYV
Test: Human 5-HT2B functional assay in CHO-K1 cells (calcium flux, FLIPR)
Format: cell-based
Details: CHO-K1 cells over-expressing 5HT2B, calcium flux; read-out: EC50 (μM), 5-HT2B Agonist Activity
The following molecules are listed with their measured EC50 values.

Worked set:
[[record]]
molecule = "O=C1CC2CNCCN2c2cc(-c3cnn(Cc4ccccc4)c3)ccc2N1 (stereo not shown)"
data_value = "> 10 µM"

[[record]]
molecule = "c1ccc(CN2CCN3c4ccccc4OCC[C@H]3C2)cc1"
data_value = "> 10 µM"

[[record]]
molecule = "O=C1CC2CNCCN2c2cc(OCc3cccc(F)c3)ccc2N1 (stereo not shown)"
data_value = "0.35 µM"


Problem: Param item = CCN1CCC2CN(C)CCN2c2ccc(Cl)cc21 (stereo not shown) ; retrieve measured EC50.
Solution: > 10 µM

Problem: Returns the measured EC50 for the input molecule. Input: O=C1CC2CNCCN2c2cc(COc3ccc(F)cc3)ccc2N1 (stereo not shown)
Solution: > 10 µM

Problem: Please report the recorded EC50 for O=C1CC2CNCCN2c2cc(OCCc3ccccc3)ccc2N1 (stereo not shown) .
Solution: > 10 µM

* * *

Biological target: 5HT2B receptors (Homo sapiens, UniProt P41595)
Construct: expressed in transfected cells; host or cells: CHO-K1 cells
Test: Human 5-HT2B functional assay in CHO-K1 cells (calcium flux, FLIPR)
Assay type: cell-based
Item-by-item account of pEC50
Conceptually, pEC50 converts a concentration in mol/L into minus its log10.

Worked cases, answers included:
[[record]]
molecule = "CN1CCC2CNCCN2c2ccc(Cl)cc21 (centres unmarked)"
measurement_label = "pEC50"
data_value = 6.00

[[record]]
molecule = "Cc1ccc2c(c1)N1CCNC[C@H]1CCO2"
measurement_label = "pEC50"
data_value = 7.70


// below: pEC50 requested for another molecule
Problem: For 5HT2B receptors (Homo sapiens, UniProt P41595), provide pEC50 of Fc1ccc2c(c1F)OCC[C@H]1CNCCN21 please.
Solution: 7.15

* * *

# Emax listing for each entry below
Molecular target: 5HT2C receptors (Homo sapiens, UniProt P28335)
Assay: Human 5-HT2C functional assay in CHO-K1 cells (calcium flux, FLIPR)
Format: cell-based
Parameters: expressed in transfected cells; host or cells: CHO-K1 cells
Conditions: CHO-K1, read-out: Emax (%), 5-HT2c Agonist Activity, CHO-K1 cells; percentage relative to the effect of serotonin
Lab book: enter the figure in %, no units written.

The examples below pair each entry with its known result.
[[record]]
molecule = "[2H]c1cccc2c1OCC[C@H]1CNCCN21"
data_value = 115

[[record]]
molecule = "O=C1C[C@H]2CNCCN2c2cc(Cl)c(Cl)cc2N1"
data_value = 100

[[record]]
molecule = "Cc1ccc2c(c1)OCC[C@H]1CNCCN21"
data_value = 100

[[record]]
molecule = "C[C@H]1C[C@H]2CNCCN2c2ccccc2O1 (single isomer, unassigned)"
data_value = 100

[[record]]
molecule = "Cc1cccc2c1OCC[C@H]1CNCCN21"
data_value = 90


Problem: Which Emax is listed for CN1CCN2c3ccccc3OCC[C@@H]2C1 ?
Solution: 95

Problem: Which Emax is reported for this molecule? CN1CCN2c3cc(Cl)ccc3OCC[C@H]2C1
Solution: 70

Problem: Can you look up the measured Emax of CN1CCN2c3cccc(F)c3NC(=O)CC2C1 (stereo not drawn) for me?
Solution: 100

Problem: Would you kindly share the measured Emax for Clc1ccc2c(c1)N1CCNC[C@H]1CCO2 ?
Solution: 90

Problem: What does the record list as Emax for [2H]c1cc2c(cc1[2H])N1CCNC[C@@H]1CCO2 ?
Solution: 90

* * *

Molecular target: 5HT2B receptors (Homo sapiens, UniProt P41595)
Construct: expressed in transfected cells; host or cells: CHO-K1 cells
Assay: Human 5-HT2B functional assay in CHO-K1 cells (calcium flux, FLIPR)
Assay type: cell-based
measurement label: EC50 (nM)
Field format: number, assumed nM, no unit text.

[[record]]
compound = "c1ccc2c(c1)OCC[C@@H]1CNCCN21 [Example 255]"
measurement_label = "EC50"
unit_abbrev = "nM"
data_value = 90

[[record]]
compound = "c1ccc2c(c1)CCCC1CNCCN21 (stereo not drawn) [Example 182]"
measurement_label = "EC50"
unit_abbrev = "nM"
data_value = 100


Would you kindly look at the next entry?
Problem: So what's the measured EC50 for this one? Cc1cc(Cl)cc2c1OCC[C@H]1CNCCN21 [Example 227]
Solution: 50

* * *

Target: 5HT2C receptors (Homo sapiens, UniProt P28335)
Sequence (P28335 33-458): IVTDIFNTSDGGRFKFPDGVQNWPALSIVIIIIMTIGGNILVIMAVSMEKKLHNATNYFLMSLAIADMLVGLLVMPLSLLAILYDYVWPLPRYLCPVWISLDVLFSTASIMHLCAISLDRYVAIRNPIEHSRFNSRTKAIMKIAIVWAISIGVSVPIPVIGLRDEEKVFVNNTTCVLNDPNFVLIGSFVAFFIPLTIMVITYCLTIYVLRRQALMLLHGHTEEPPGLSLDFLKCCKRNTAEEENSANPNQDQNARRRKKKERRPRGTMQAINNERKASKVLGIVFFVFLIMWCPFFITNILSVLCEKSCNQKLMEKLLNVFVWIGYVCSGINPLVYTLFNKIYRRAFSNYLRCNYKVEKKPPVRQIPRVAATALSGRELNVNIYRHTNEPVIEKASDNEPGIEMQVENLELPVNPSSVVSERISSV
Test: Human 5-HT2C functional assay in CHO-K1 cells (calcium flux, FLIPR)
Assay type: cell-based
Set-up: expressed in transfected cells; host or cells: CHO-K1 cells
Settings: read-out: EC50 (μM), 5-HT2c Agonist Activity; CHO-K1 cells over-expressing 5HT2C, calcium flux
Protocol: (iii) Human 5-HT2C and 5-HT2B Functional Assay in CHO-K1 Cells […] Fluorescence measurements were read at 25° C. at an excitation wavelength of 480 nm and an emission wavelength of 530 nm in FLIPR (MDS). Baseline fluorescence was measured for the first 10 seconds and then 15 μL of 4× concentrations of serotonin/test compounds was added to the cell plate. The fluorescence intensity was captured every second for the first 1 minute followed by every 5 seconds for an additional 2 minutes. […]
measurement label: EC50 (µM)
Write it as a number; the unit µM goes unstated.

Problem: Given COc1ccc2c(c1)OCC[C@H]1CNCCN21 , state its recorded EC50.
Solution: 0.05

These entries and their values trace back to patent US8546377B2.
